A compilation of published IC50 results with UniProtKB P16234.

stdin: What value of IC50 has been recorded for this entry: Cn1ncc2ccc(-c3n[nH]c4c3Cc3sc(-c5ccc(CN6CCOCC6)cc5OC(F)(F)F)cc3-4)cc21
stdout: 0.1 to 0.3 µM

stdin: Same again, this time with Cn1cc(-c2cc3c(s2)Cc2c(-c4ccc5cnn(C)c5c4)n[nH]c2-3)cc1C(=O)N1CCOCC1
stdout: 0.001 to 0.01 µM

stdin: Same again, this time with Cn1cc(-c2cc(Oc3c(F)cc(NC(=O)NC(=O)Cc4ccc(F)cc4)cc3F)ccn2)cn1
stdout: < 10 µM

stdin: Same again, this time with C[C@@H]1COCCN1Cc1ccc(-c2cc3c(s2)Cc2c(-c4ccc5cnn(C)c5c4)n[nH]c2-3)cc1
stdout: 0.001 to 0.01 µM

stdin: Same again, this time with COCCN1CCC(Nc2ccc3c(c2)/C(=C(\c2ccc(F)cc2)c2ncc[nH]2)C(=O)N3)CC1
stdout: < 0.05 µM

stdin: Same again, this time with COc1ccc(-c2cc3c(s2)Cc2c(-c4ccc5cn[nH]c5c4)n[nH]c2-3)cn1
stdout: 0.01 to 0.03 µM

stdin: Same again, this time with CCN1CCC(Nc2ccc3c(c2)/C(=C(\c2ccccc2)c2nc4cc(Cl)ccc4[nH]2)C(=O)N3)CC1
stdout: < 0.05 µM

stdin: Same again, this time with COCCN1CCC(Nc2ccc3c(c2)/C(=C(\c2ccc(OC)cc2)c2ncc[nH]2)C(=O)N3)CC1
stdout: < 0.05 µM

stdin: Same again, this time with CCN1CCC(Nc2ccc3c(c2)/C(=C(\c2cccc(C(F)(F)F)c2)c2ncc[nH]2)C(=O)N3)CC1
stdout: < 0.05 µM

stdin: Same again, this time with CCN1CCC(Nc2ccc3c(c2)/C(=C(\c2cccc([N+](=O)[O-])c2)c2nc4ccccc4[nH]2)C(=O)N3)CC1
stdout: < 0.05 µM

stdin: Same again, this time with CS(=O)(=O)N1CCC(Nc2ccc3c(c2)/C(=C(\c2ccccc2)c2nc4ccccc4[nH]2)C(=O)N3)CC1
stdout: 0.5 to 5 µM

stdin: Same again, this time with CCN1CCC(Nc2ccc3c(c2)/C(=C(\c2ccc(C)cc2)c2nc4cc(OC)ccc4[nH]2)C(=O)N3)CC1
stdout: < 0.05 µM

====

A compilation of published pIC50 results with Platelet-derived growth factor receptor alpha (Homo sapiens, UniProt P16234).
pIC50: −log10 of the molar value.

Check out these entries, answers already filled in.
smiles.structure	target.desc	parameter.measured	result
CCN1CCC(Nc2ccc3c(c2)/C(=C(\c2cccc(C#N)c2)c2nc4ccccc4[nH]2)C(=O)N3)CC1	Platelet-derived growth factor receptor alpha (Homo sapiens, UniProt P16234)	pIC50	6.30 to 7.30
COCCN1CCC(Nc2ccc3c(c2)/C(=C(\c2cccc(OC)c2)c2nc4ccccc4[nH]2)C(=O)N3)CC1	Platelet-derived growth factor receptor alpha (Homo sapiens, UniProt P16234)	pIC50	> 7.30
Cn1ncc2ccc(-c3n[nH]c4c3Cc3sc(-c5cccc(CN6CCOCC6)c5)cc3-4)cc21	Platelet-derived growth factor receptor alpha (Homo sapiens, UniProt P16234)	pIC50	7.52 to 8.00

stdin: What value of pIC50 has been recorded for this entry: Cn1cc(-c2cc(Oc3cc(F)c(NC(=O)NC(=O)Cc4ccc(F)cc4)cc3Cl)ccn2)cn1
stdout: > 6.70

stdin: Same again, this time with Cn1ncc2ccc(-c3n[nH]c4c3Cc3sc(-c5ccc(C(=O)N6CCOCC6)cc5)cc3-4)cc21
stdout: 8.00 to 9.00

stdin: Same again, this time with CCN1CCC(Nc2ccc3c(c2)/C(=C(/c2nc(C)c[nH]2)c2cccc(F)c2F)C(=O)N3)CC1
stdout: > 7.30

stdin: Same again, this time with Cn1ncc2ccc(-c3n[nH]c4c3Cc3sc(-c5ccc(CN6CCOCC6)cc5)cc3-4)cc21
stdout: 8.00 to 9.00
